Source listed as patent US20170266254A1.

Target: T1, C-terminally 6x Histidine-tagged Beta-Catenin (aa 134-668, 59 KD) (UniProt P35222 134-668)
T1 construct: range 134-668; Armadillo repeat region
T1 sequence: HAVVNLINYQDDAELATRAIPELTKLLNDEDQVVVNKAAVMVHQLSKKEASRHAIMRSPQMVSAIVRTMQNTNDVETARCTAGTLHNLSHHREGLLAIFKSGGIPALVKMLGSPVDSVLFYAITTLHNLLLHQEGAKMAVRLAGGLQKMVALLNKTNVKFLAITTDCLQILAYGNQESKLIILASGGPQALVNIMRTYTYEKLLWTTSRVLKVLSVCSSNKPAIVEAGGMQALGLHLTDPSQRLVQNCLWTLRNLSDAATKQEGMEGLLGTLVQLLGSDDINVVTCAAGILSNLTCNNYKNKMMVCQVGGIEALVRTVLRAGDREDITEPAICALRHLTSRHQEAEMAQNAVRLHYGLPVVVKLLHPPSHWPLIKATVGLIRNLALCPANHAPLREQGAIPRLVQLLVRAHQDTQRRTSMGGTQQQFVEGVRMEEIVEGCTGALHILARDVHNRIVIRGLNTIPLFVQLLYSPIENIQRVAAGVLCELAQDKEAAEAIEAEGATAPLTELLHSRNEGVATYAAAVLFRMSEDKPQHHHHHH
Assay: competitive fluorescence polarization, FAM-labelled linear probe as competitor, His-tagged beta-catenin 134-668
measured.metric: IC50 (nM)
Write it as a number; the unit nM goes unstated.

For the binder LGANDELISFADEGAQEEKSSNNSSAERDLADVKSSLV (not fully specified; N-terminal acetyl; C-terminal amide; $ = (S)-alpha-(2'-pentenyl)alanine at positions 11 and 15, joined by an all-carbon crosslinker with one double bond) [SP26] , what IC50 is on record? 42
